assayed target: human GPR119 receptor (Homo sapiens, UniProt Q8TDV5, S329A/T327A)
Construct: N-terminal leader […]; expressed in transfected cells
protocol text: cAMP assay (LANCE cAMP-384) in HEK293 cells stably expressing mutant human GPR119 receptor
Format: cell-based
setup conditions: the 33rd table; read-out: EC50
measurement kind: EC50 (nM)
API: value field is a number in nM; no unit string.

Answered examples (3):
Q: Would you kindly share the measured EC50 for CCOC(=O)C1CC1COC(=O)N1CCC(ON=C2CCN(c3ccc(S(C)(=O)=O)cc3F)CC2)CC1 (stereo not drawn) ?
Ans: 107

Q: Would you kindly share the measured EC50 for CCC(CC)COC(=O)N1CCC(ON=C2CCN(c3ccc(S(C)(=O)=O)cc3F)CC2)CC1 ?
Ans: 54

Q: Would you kindly share the measured EC50 for CCC(C)COC(=O)N1CCC(ON=C2CCN(c3ccc(S(C)(=O)=O)cc3F)CC2)CC1 (stereo not drawn) ?
Ans: 43

Shift focus to the following entry.
Q: Would you kindly share the measured EC50 for CC1CC1COC(=O)N1CCC(ON=C2CCN(c3ccc(S(C)(=O)=O)cc3F)CC2)CC1 (stereo not drawn) ?
Ans: 32

* * *

assayed target: human GPR119 receptor (Homo sapiens, UniProt Q8TDV5, S329A/T327A)
Construct: N-terminal leader […]; expressed in transfected cells
protocol text: cAMP assay (LANCE cAMP-384) in HEK293 cells stably expressing mutant human GPR119 receptor
Format: cell-based
setup conditions: cAMP accumulation, HEK293 cells stably expressing mutant human GPR119; read-out: EC50
measurement kind: EC50

Answered examples (3):
Q: Would you kindly share the measured EC50 for CC(C)OC(=O)N1CCC(ON=C2CCN(c3ccc(C=O)c(O)c3)CC2)CC1 [Example 2-30] ?
Ans: > 10000 nM

Q: Would you kindly share the measured EC50 for CC(C)OC(=O)N1CCC(ON=C2CCN(c3cc(F)c(Cn4cnnc4)cc3F)CC2)CC1 [Example 14-17] ?
Ans: 28 nM

Q: Would you kindly share the measured EC50 for CC(C)OC(=O)N1CCC(ON=C2CCN(c3nccc(C(F)(F)F)n3)CC2)CC1 [Example 2-66] ?
Ans: > 10000 nM

More entries:
Q: Would you kindly share the measured EC50 for CC(C)OC(=O)N1CCC(ON=C2CCN(c3ncc(Br)c(N(C)C)n3)CC2)CC1 [Example 2-54] ?
Ans: > 10000 nM

Q: Would you kindly share the measured EC50 for CC(C)OC(=O)N1CCC(ON=C2CCN(c3cc(F)c(-c4ccsc4)cc3F)CC2)CC1 [Example 27-12] ?
Ans: 245 nM

Q: Would you kindly share the measured EC50 for CC(C)OC(=O)N1CCC(ON=C2CCN(c3cc(F)c(CSCC(=O)O)cc3F)CC2)CC1 [Example 13-2] ?
Ans: 2410 nM

Q: Would you kindly share the measured EC50 for CC(C)OC(=O)N1CCC(ON=C2CCN(c3cc(F)c(-c4cc[nH]n4)cc3F)CC2)CC1 [Example 27-9] ?
Ans: 232 nM

Q: Would you kindly share the measured EC50 for CC(C)OC(=O)N1CCC(ON=C2CCN(c3cc(O)ncc3F)CC2)CC1 [Example 2-74] ?
Ans: > 10000 nM

Q: Would you kindly share the measured EC50 for CC(C)OC(=O)N1CCC(ON=C2CCN(c3cc(F)ccc3F)CC2)CC1 [Example 32-2] ?
Ans: 2860 nM

Q: Would you kindly share the measured EC50 for CC(=O)NCc1cc(F)c(N2CCC(=NOC3CCN(C(=O)OC(C)C)CC3)CC2)cc1F [Example 16-2] ?
Ans: 141 nM

Q: Would you kindly share the measured EC50 for Cc1cnn(Cc2cc(F)c(N3CCC(=NOC4CCN(C(=O)OC(C)C)CC4)CC3)cc2F)c1 [Example 14-10] ?
Ans: 8 nM

Q: Would you kindly share the measured EC50 for CC(C)OC(=O)N1CCC(ON=C2CCN(c3cc(F)c(CO)cc3F)CC2)CC1 [Example 10-1] ?
Ans: 9 nM

Q: Would you kindly share the measured EC50 for CC(C)OC(=O)N1CCC(ON=C2CCN(c3ncc(C#N)c(N)n3)CC2)CC1 [Example 2-18] ?
Ans: > 10000 nM

Q: Would you kindly share the measured EC50 for Cc1noc(C)c1-c1cc(F)c(N2CCC(=NOC3CCN(C(=O)OC(C)C)CC3)CC2)cc1F [Example 27-2] ?
Ans: > 10000 nM

Q: Would you kindly share the measured EC50 for CC(C)OC(=O)N1CCC(ON=C2CCN(c3cc(F)c(-c4ccoc4)cc3F)CC2)CC1 [Example 27-3] ?
Ans: 591 nM

Q: Would you kindly share the measured EC50 for CCOC(=O)CC(=O)c1cc(F)c(N2CCC(=NOC3CCN(C(=O)OC(C)C)CC3)CC2)nc1Cl [Example 2-48] ?
Ans: 146 nM

* * *

assayed target: human GPR119 receptor (Homo sapiens, UniProt Q8TDV5, S329A/T327A)
Construct: N-terminal leader […]; expressed in transfected cells
protocol text: cAMP assay (LANCE cAMP-384) in HEK293 cells stably expressing mutant human GPR119 receptor
Assay type: cell-based
setup conditions: the 19th table; unit inferred; read-out: EC 50
Sorting guide: entries reporting EC50 beneath 100 nM go in the Condition met pile, the rest go in the Condition not met pile.

Take a look at these entries with their results.
Q: Check if EC50 falls below 100 nM for CCc1cnc(N2CCC(ON=C3CCN(c4cc(F)c(C(=O)NC5CCNC5)cc4F)CC3)CC2)nc1 (centres unmarked) .
Ans: Condition not met

Q: Check if EC50 falls below 100 nM for CCc1cnc(N2CCC(ON=C3CCN(c4cc(F)c(C(=O)N5CCC(N)CC5)cc4F)CC3)CC2)nc1 .
Ans: Condition not met

Q: Check if EC50 falls below 100 nM for CCc1cnc(N2CCC(ON=C3CCN(c4cc(F)c(C(=O)N5CCCCC5CNC)cc4F)CC3)CC2)nc1 (centres unmarked) .
Ans: Condition not met

More entries:
Q: Check if EC50 falls below 100 nM for CCc1cnc(N2CCC(ON=C3CCN(c4cc(F)c(C(=O)N5CCC[C@H](N)C5)cc4F)CC3)CC2)nc1 .
Ans: Condition met

* * *

assayed target: human GPR119 receptor (Homo sapiens, UniProt Q8TDV5, S329A/T327A)
Construct: N-terminal leader […]; expressed in transfected cells
Sequence (Q8TDV5 with tags, fused parts or gaps T327A/S329A): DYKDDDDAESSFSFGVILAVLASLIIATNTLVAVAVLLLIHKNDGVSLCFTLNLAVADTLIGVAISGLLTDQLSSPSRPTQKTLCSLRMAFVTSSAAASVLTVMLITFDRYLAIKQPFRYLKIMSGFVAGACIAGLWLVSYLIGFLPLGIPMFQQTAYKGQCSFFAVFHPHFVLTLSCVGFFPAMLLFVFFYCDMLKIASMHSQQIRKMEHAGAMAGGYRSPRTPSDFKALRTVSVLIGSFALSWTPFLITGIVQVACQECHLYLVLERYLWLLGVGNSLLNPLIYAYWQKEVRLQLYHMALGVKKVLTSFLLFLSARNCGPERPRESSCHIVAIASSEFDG
protocol text: cAMP assay (LANCE cAMP-384) in HEK293 cells stably expressing mutant human GPR119 receptor
Type: cell-based
setup conditions: the 41st table, compounds 73-1, 73-2; unit inferred; read-out: EC50
measurement kind: EC50
Don't forget the unit after the number, please.

Q: Would you kindly share the measured EC50 for CS(=O)(=O)c1ccc(N2CCC(=NOC3CCN(C(=O)N4CCCCC4)CC3)CC2)c(F)c1 [Example 73-1] ?
Ans: 425 nM

More entries:
Q: Would you kindly share the measured EC50 for CS(=O)(=O)c1ccc(N2CCC(=NOC3CCN(C(=O)N4CCCC4)CC3)CC2)c(F)c1 [Example 73-2] ?
Ans: 1510 nM

* * *

Recorded pEC50, one value per entry.
assayed target: human GPR119 receptor (Homo sapiens, UniProt Q8TDV5, S329A/T327A)
Construct: N-terminal leader […]; expressed in transfected cells
Sequence (Q8TDV5 with tags, fused parts or gaps T327A/S329A): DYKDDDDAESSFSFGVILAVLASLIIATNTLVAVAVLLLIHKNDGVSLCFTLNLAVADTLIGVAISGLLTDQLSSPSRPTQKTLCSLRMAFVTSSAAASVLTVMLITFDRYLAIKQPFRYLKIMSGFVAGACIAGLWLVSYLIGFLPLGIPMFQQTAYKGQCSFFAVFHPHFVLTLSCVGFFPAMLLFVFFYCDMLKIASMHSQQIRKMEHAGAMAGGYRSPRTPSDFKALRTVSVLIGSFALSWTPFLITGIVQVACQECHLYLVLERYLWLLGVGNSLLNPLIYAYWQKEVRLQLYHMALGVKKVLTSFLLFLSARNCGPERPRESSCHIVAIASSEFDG
protocol text: cAMP assay (LANCE cAMP-384) in HEK293 cells stably expressing mutant human GPR119 receptor
Assay type: cell-based
setup conditions: the 39th table, compounds 67-1 to 67-3; read-out: EC50
Conceptually, pEC50 converts a concentration in mol/L into minus its log10.

Answered examples (2):
Q: Would you kindly share the measured pEC50 for Cc1ccc(N2CCC(ON=C3CCN(c4ccc(S(C)(=O)=O)cc4F)CC3)CC2)cn1 [Example 67-3] ?
Ans: 6.13

Q: Would you kindly share the measured pEC50 for Cc1ccc(N2CCC(ON=C3CCN(c4ccc(S(C)(=O)=O)cc4F)CC3)CC2)nc1 [Example 67-1] ?
Ans: 6.41

Shift focus to the following entry.
Q: Would you kindly share the measured pEC50 for CCc1ccc(N2CCC(ON=C3CCN(c4ccc(S(C)(=O)=O)cc4F)CC3)CC2)nc1 [Example 67-2] ?
Ans: 6.25
